target: AURKA (human); assay: radiometric filter-binding kinase assay, Kinase HotSpot; settings: compound 0.5 µM; ATP 10 µM
observed.property: residual activity (%)
Could you give me the number in %? Just the number is fine.

{"cpd.smiles": "CN(C)CCCn1cc(C2=C(c3c[nH]c4ccccc34)C(=O)NC2=O)c2ccccc21", "residual activity, %": 108}
{"cpd.smiles": "COc1cc2ncnc(Nc3ccc(OCc4ccccc4)cc3)c2cc1OC", "residual activity, %": 91.3}
{"cpd.smiles": "CO[C@@H]1[C@H](N(C)C(=O)c2ccccc2)C[C@H]2O[C@]1(C)n1c3ccccc3c3c4c(c5c6ccccc6n2c5c31)C(=O)NC4", "residual activity, %": 4.48}

// switching to the query molecule
Exam item: Find residual activity for "COc1ccc2c(c1)c(C1=C(c3c[nH]c4ccccc34)C(=O)NC1=O)cn2CCCN(C)C" on AURKA (human) and write it down.
Marked response: 86.6

Reference for the values: the kinase profiling compilation of Christmann-Franck et al. (2016)
